# targetOrSystem: PKR R510Q (Homo sapiens, UniProt P30613, R510Q)
# Sequence (P30613 whole entry R510Q): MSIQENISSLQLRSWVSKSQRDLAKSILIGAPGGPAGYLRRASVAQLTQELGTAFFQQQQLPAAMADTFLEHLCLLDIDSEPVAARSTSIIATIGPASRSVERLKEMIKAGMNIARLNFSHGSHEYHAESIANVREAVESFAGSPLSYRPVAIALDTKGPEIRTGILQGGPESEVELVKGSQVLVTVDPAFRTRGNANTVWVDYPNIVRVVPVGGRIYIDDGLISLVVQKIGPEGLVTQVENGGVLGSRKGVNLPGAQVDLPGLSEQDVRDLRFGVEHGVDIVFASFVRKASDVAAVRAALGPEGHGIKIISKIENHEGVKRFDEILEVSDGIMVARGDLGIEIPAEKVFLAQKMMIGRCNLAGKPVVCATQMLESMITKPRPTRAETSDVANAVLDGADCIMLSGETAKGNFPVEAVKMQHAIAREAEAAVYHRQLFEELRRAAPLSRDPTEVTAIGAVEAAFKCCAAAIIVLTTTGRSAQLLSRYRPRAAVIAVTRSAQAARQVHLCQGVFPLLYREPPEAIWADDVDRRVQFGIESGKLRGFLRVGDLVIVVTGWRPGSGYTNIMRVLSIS
# assayMethodText: PKR mutant assay (R510Q), AC50, LDH/NADH-coupled, absorbance at 340 nm
# Format: biochemical
# details: Table 2; enzyme assay; read-out: PK R510Q AC50
# Experimental: Example 11. PKR Mutant Assay PKR or PKR mutant enzyme solution was diluted into a reaction mix, which contains 1× buffer (100 mM KCl, 50 mM Tris pH 7.5, 5 mM MgCl2) as well as PEP (conc depends on enzyme), 180 μM NADH, 0.5 units LDH, 1 mM DTT, 0.03% BSA; final assay concentrations after 1.11 fold dilution are indicated. […] 20 uL ADP was added to start reaction at room temperature and reaction progress was measured as changes in absorbance at 340 nm wavelength at room temperature. […]
AC50 values by entry

>  <compound>
Cc1nc2c(s1)c1cnn(Cc3cccc4c3cnn4C)c(=O)c1n2C

>  <quantityKind>
AC50

>  <endpointValue>
< 300 nM

$$$$
>  <compound>
Cn1c2nc(Cc3cccc(O)c3)sc2c2cnn(Cc3cccc4[nH]ncc34)c(=O)c21

>  <quantityKind>
AC50

>  <endpointValue>
< 300 nM

$$$$
>  <compound>
CCOC(=O)c1scnc1Cc1nc2c(s1)c1cnn(Cc3cccc4[nH]ncc34)c(=O)c1n2C

>  <quantityKind>
AC50

>  <endpointValue>
301 to 800 nM

$$$$
>  <compound>
COc1cccc(Cn2ncc3c4sc(Cc5ccccc5)nc4n(C)c3c2=O)c1

>  <quantityKind>
AC50

>  <endpointValue>
< 300 nM

$$$$
>  <compound>
Cn1c2nc(Cc3cc[nH]n3)sc2c2cnn(Cc3cccc4[nH]ncc34)c(=O)c21

>  <quantityKind>
AC50

>  <endpointValue>
< 300 nM

$$$$
>  <compound>
Cn1c2nc(C(C)(O)c3cc[nH]n3)sc2c2cnn(Cc3cccc4[nH]ncc34)c(=O)c21 (centres unmarked)

>  <quantityKind>
AC50

>  <endpointValue>
< 300 nM

$$$$
>  <compound>
Cn1c2nc(Cc3ccc4cn[nH]c4c3)sc2c2cnn(Cc3cccc4[nH]ncc34)c(=O)c21

>  <quantityKind>
AC50

>  <endpointValue>
< 300 nM

$$$$
>  <compound>
CC(c1ccccc1)c1nc2c(s1)c1cnn(Cc3cccc4c3cnn4C)c(=O)c1n2C (centres unmarked)

>  <quantityKind>
AC50

>  <endpointValue>
301 to 800 nM

$$$$
>  <compound>
COc1cccc(Cn2ncc3c4sc(Cc5cc[nH]n5)nc4n(C)c3c2=O)c1

>  <quantityKind>
AC50

>  <endpointValue>
< 300 nM

$$$$
>  <compound>
Cc1nc2c(s1)c1cnn(Cc3cccc(CN)c3)c(=O)c1n2C

>  <quantityKind>
AC50

>  <endpointValue>
< 300 nM

$$$$

Below: the item to evaluate.
If you can, please state the reported AC50 value of Cn1c2nc(Cc3cccc(S(N)(=O)=O)c3)sc2c2cnn(Cc3cccc4[nH]ncc34)c(=O)c21 .
< 300 nM
